tested on: MDA-MB-231: human breast adenocarcinoma; assay: In vitro cytotoxicity / antiproliferation, MDA-MB-231; format: cell-based; conditions: MDA-MB-231, read-out: Antiproliferation activity (IC50)
Quantity Kind: IC50 (µM)
Express your answer in µM, writing the number without its unit.

Previously resolved entries follow.
Ask: Quick one: IC50 of O=C(/C=C/c1cccc(S(=O)(=O)Nc2ccccc2)c1)NO [Belinostat, reference compound] ?
Result: 0.0616

Ask: Then what about the compound CCN(CC)Cc1ccc2cc(COC(=O)Nc3ccc(C(=O)NO)cc3)ccc2c1 [Givinostat, reference compound] ?
Result: 0.119

Ask: Then what about the compound CC1(C)OB(c2ccc(CONC(=O)CCCCCCC(=O)Nc3ccccc3)cc2)OC1(C)C [Compound 1] ?
Result: 423

Further cases:
Ask: Quick one: IC50 of CCN(CC)Cc1ccc2cc(COC(=O)Nc3ccc(C(=O)NOCc4ccc(B5OC(C)(C)C(C)(C)O5)cc4)cc3)ccc2c1 [Compound 4] ?
Result: 0.321

Ask: Then what about the compound Cn1c(CCCC(=O)NOCc2ccc(B3OC(C)(C)C(C)(C)O3)cc2)nc2cc(N(CCCl)CCCl)ccc21 [Compound 7] ?
Result: 3.33
